Target: Ba/F3 BCR-ABL1 WT (Homo sapiens, UniProt P00519+P11274)
Construct: BCR (N-terminal fusion partner of the oncoprotein)
Sequence (P00519 28-1130 limits assumed, one chain of several): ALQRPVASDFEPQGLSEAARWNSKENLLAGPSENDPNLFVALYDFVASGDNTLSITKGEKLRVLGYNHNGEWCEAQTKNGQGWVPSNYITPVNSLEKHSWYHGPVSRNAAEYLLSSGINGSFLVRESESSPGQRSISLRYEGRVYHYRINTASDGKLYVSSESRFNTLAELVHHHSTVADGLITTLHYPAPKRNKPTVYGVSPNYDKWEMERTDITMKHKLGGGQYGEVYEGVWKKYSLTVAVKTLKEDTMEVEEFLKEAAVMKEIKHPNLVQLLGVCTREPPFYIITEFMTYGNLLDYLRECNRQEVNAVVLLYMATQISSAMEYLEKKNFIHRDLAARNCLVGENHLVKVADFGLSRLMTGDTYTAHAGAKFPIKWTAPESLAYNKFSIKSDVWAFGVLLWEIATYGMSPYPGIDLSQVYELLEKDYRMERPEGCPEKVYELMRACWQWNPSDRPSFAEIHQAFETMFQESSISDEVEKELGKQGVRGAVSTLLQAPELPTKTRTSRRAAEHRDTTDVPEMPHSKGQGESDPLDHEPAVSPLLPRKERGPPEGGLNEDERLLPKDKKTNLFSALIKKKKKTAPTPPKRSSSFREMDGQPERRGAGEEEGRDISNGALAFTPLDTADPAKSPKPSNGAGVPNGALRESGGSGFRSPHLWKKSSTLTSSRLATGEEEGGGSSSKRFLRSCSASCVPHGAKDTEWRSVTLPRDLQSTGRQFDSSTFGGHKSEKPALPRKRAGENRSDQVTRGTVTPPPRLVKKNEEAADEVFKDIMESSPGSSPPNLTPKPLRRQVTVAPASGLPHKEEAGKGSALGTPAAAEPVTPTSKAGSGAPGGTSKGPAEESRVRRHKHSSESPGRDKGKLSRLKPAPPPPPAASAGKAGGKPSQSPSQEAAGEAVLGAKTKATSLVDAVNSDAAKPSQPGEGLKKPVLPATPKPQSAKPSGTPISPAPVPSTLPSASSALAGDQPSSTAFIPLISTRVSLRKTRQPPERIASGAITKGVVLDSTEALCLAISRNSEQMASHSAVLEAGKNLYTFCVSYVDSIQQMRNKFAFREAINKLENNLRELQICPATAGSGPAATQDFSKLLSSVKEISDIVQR
Experiment: Cell growth inhibitory activity assay (CellTiter-Glo), Ba/F3 BCR-ABL1 WT cells
Details: 72 h, CTG cell viability
PROPERTY_LABEL: IC50

In [3]: df
Out[3]:
                                smiles_repr   value
0  O=C(Nc1ccc(OC(F)(F)Cl)cc1)c1cnc(N2CC[C@@H](F)C2)c(-c2cnc3c(c2)-c2nn(-c4nccc(N5CCOCC5)n4)cc2C3)c1  ≤ 5 nM
1  O=C(Nc1ccc(OC(F)(F)Cl)cc1)c1cnc(N2CC[C@@H](F)C2)c(-c2cnc3c(c2)-c2nn(-c4ncc(C(F)(F)F)cn4)cc2C3)c1  ≤ 5 nM
2  COc1cccc(-c2ccnc(-n3cc4c(n3)-c3cc(-c5cc(C(=O)Nc6ccc(OC(F)(F)Cl)cc6)cc6nc7n(c56)[C@H](C)COC7)cnc3C4)n2)c1F  ≤ 5 nM
